Below is a list of entries, each paired with its recorded EC50 value.
Target: T1, NiVM-G
T1 chain: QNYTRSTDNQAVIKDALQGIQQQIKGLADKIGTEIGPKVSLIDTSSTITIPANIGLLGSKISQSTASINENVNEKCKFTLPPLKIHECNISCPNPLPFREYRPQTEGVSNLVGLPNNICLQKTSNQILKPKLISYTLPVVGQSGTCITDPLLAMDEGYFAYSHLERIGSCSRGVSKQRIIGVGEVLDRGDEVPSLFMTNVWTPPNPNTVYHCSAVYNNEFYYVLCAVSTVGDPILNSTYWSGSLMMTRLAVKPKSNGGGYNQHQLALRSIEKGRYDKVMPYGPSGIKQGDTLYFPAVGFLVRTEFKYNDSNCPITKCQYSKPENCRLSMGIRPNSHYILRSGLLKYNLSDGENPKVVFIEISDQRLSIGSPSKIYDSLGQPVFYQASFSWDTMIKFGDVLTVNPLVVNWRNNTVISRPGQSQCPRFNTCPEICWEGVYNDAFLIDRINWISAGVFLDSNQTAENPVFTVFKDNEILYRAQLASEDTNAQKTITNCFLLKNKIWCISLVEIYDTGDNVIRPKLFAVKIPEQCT
Use nM as the unit, but write only the number.

Consider the reported EC50 for these binders:
{"binder": "HENV-100 (antibody, V domains shown) VH: QVQLVQSGAEVKKPGASVKVSCKASGYTFTSYYINWVRQAPGQGLEWVGTINPSGGSTTYAQKFQGRVTVTRDTSTSTVYMDLSGLRSGDTAVYYCARDRKGLAATPVYSDYYYGMDVWGQGTTVTVSS VL: EIVLTQSPATLSLSPGERATLSCRASQSVSSFLAWYQQKPGQAPRLLISDASKRATGIPARFSGSGSGTDFSLTISSLEAEDFAVYYCQQSTNWRITFGQGTRLELK", "unit.of.measure": "nM", "EC50": 0.316}
{"binder": "HENV-98 (antibody, V domains shown) VH: AVQLVESGGGLVQPGGSLRLSCEASGFTFSGYWMSWVRQAPGKGLEWVANIKGDGSEKYYVDSVKGRFTIFRDNAKTSLYLQVNSLRAEDTAVYYCARERHFLAARPGYYIYSGLDVWGPGTTVTVSS VL: DIQMTQSPSSLSASVGDRVTITCRASQSIDNYLNWYQQKPGKVPKLLIYAASNLQSGVPSKFSGGGSGTDFTLTISSLQPDDFATYYCQQSFGTPRTFGQGTRVEIK", "unit.of.measure": "nM", "EC50": 0.396}

Below: the item to evaluate.
INPUT: What does the data say about its EC50? Entry: HENV-141 (antibody, V domains shown) VH: QVQLVQSGAEVKKPGSSVKVSCKASGGTFSSYTISWVRQAPGQGLEWMGRIIPISGITNYAQKFQGRVTITADKSTSTAYMELSSLRSEDTAVYYCAKDCYYGSGTYYGCRADYQWHHTMDVWGQGTTVTVSS VL: DIQMTQSPSSLSASVGDRVTITCRASQGIRNDLGWFQQKPGKAPKRLIYAASSLQSGVPSRFSGSGSGTEFTLTISSLQPEDFATYFCLQHNTYPLTFGQGTKVEIK
OUTPUT: 0.266
